Where these numbers come from: patent US4731109A

System: Yellow Nutsedge
Experiment: Greenhouse pre-emergence GR15/GR85 selectivity test
Type: in vivo
Details: yellow nutsedge in soybeans, Table IV, Replicate #2
observation type: selectivity factor (GR15/GR85)

compound | prefix operator | quantitative result
COCCN(C(=O)CCl)c1ccccc1C(F)(F)F [A, reference compound] | > | 2
CCOCCN(C(=O)CCl)c1ccccc1C(F)(F)F [B, reference compound] | = | 4.5
CCOCN(C(=O)CCl)c1c(C)cccc1C(F)(F)F | = | 18
CC(C)OCN(C(=O)CCl)c1ccccc1C(F)(F)F | = | 8.5
CCCOCN(C(=O)CCl)c1c(C)cccc1C(F)(F)F | = | 5
CCOCN(C(=O)CCl)c1c(CC)cccc1C(F)(F)F | = | 12.5
Cc1cccc(C(F)(F)F)c1N(COC(C)C)C(=O)CCl | = | 7.5

---

Test system: Barnyardgrass
Assay: Resistance to leaching and resulting herbicidal efficacy
Assay type: in vivo
Settings: Echinochloa crus-galli, Ray silt loam, 0.56 Kg/Ha, rain 10.16 cm; read-out: Percent Inhibition

molecule smiles | inhibition at 560 g/ha (%)
Cc1cccc(C(F)(F)F)c1N(COCC(C)C)C(=O)CCl | 72
CCOCN(C(=O)CCl)c1c(C)cccc1C(F)(F)F | 33
CCCOCN(C(=O)CCl)c1c(CC)cccc1C(F)(F)F | 90
Cc1cccc(C(F)(F)F)c1N(COC(C)C)C(=O)CCl | 17
CCCOCN(C(=O)CCl)c1c(C)cccc1C(F)(F)F | 52

---

Tested on: itchgrass
Assay: Greenhouse pre-emergence GR15/GR85 selectivity test
Assay type: in vivo
Details: in lima beans, Table XVI

molecule | target under test | selectivity factor (GR15/GR85)
Cc1cccc(C(F)(F)F)c1N(COCC(C)C)C(=O)CCl [Example 5] | itchgrass | > 2
CCOCN(C(=O)CCl)c1c(CC)cccc1C(F)(F)F [Example 9] | itchgrass | 1.4
Cc1cccc(C(F)(F)F)c1N(COC(C)C)C(=O)CCl [Example 4] | itchgrass | > 2.2
CCCOCN(C(=O)CCl)c1c(CC)cccc1C(F)(F)F [Example 10] | itchgrass | > 1.2

---

Test system: Barnyardgrass
Assay: Resistance to leaching and resulting herbicidal efficacy
Type: in vivo
Settings: Echinochloa crus-galli, Drummer silt clay, 0.56 Kg/Ha, rain 0 cm; read-out: Percent Inhibition

compound | inhibition at 560 g/ha
CCCOCN(C(=O)CCl)c1c(CC)cccc1C(F)(F)F [Example 10] | 99%
CCCOCN(C(=O)CCl)c1c(C)cccc1C(F)(F)F [Example 3] | 100%
Cc1cccc(C(F)(F)F)c1N(COCC(C)C)C(=O)CCl [Example 5] | 50%
Cc1cccc(C(F)(F)F)c1N(COC(C)C)C(=O)CCl [Example 4] | 100%
CCOCN(C(=O)CCl)c1c(C)cccc1C(F)(F)F [Example 1] | 100%

---

Item-by-item account of selectivity factor (GR15/GR85)
Tested on: Quackgrass
Experiment: Greenhouse pre-emergence GR15/GR85 selectivity test
Assay type: in vivo
Details: quackgrass in soybeans, Table IV, Replicate #2

molecule | selectivity factor (GR15/GR85)
CCCOCN(C(=O)CCl)c1c(C)cccc1C(F)(F)F [Example 3] | 8.5
CC(C)OCN(C(=O)CCl)c1ccccc1C(F)(F)F [Example 2] | 7.5
CCOCN(C(=O)CCl)c1c(CC)cccc1C(F)(F)F [Example 9] | 10.5
CCOCN(C(=O)CCl)c1c(C)cccc1C(F)(F)F [Example 1] | 14
CCOCCN(C(=O)CCl)c1ccccc1C(F)(F)F [B, reference compound] | 3
Cc1cccc(C(F)(F)F)c1N(COC(C)C)C(=O)CCl [Example 4] | 9.5

---

Tested on: fall panicum
Test: Greenhouse pre-emergence GR15/GR85 selectivity test
Type: in vivo
Details: Table XVI
Description: A good grade of top soil is placed in aluminum pans and compacted to a depth of three-eighths to one-half inch from the top of the pan. On the top of the soil is placed a number of seeds or vegetative propagules of various plant species. The soil required to level fill the pans after seeding or adding vegetative propagules is weighed into a pan. […]

molecule smiles | GR85 Rate / Kg/Ha
CCCOCN(C(=O)CCl)c1c(CC)cccc1C(F)(F)F | 0.22
Cc1cccc(C(F)(F)F)c1N(COCC(C)C)C(=O)CCl | 0.28
CCOCN(C(=O)CCl)c1c(CC)cccc1C(F)(F)F | 0.13
CCCOCN(C(=O)CCl)c1c(C)cccc1C(F)(F)F | 0.08
Cc1cccc(C(F)(F)F)c1N(COC(C)C)C(=O)CCl | 0.13

---

Test system: Quackgrass
Test: Greenhouse pre-emergence GR15/GR85 selectivity test
Format: in vivo
Settings: Table IV, Replicate #2
Item-by-item account of GR85

compound | unit | prefix operator | GR85
CCOCN(C(=O)CCl)c1c(C)cccc1C(F)(F)F | Kg/Ha | = | 0.16
COCCN(C(=O)CCl)c1ccccc1C(F)(F)F [A, reference compound] | Kg/Ha | > | 2.2
CC(C)OCN(C(=O)CCl)c1ccccc1C(F)(F)F | Kg/Ha | = | 0.22
CCOCN(C(=O)CCl)c1c(CC)cccc1C(F)(F)F | Kg/Ha | = | 0.20
CCCOCN(C(=O)CCl)c1c(C)cccc1C(F)(F)F | Kg/Ha | = | 0.13
Cc1cccc(C(F)(F)F)c1N(COC(C)C)C(=O)CCl | Kg/Ha | = | 0.18
CCOCCN(C(=O)CCl)c1ccccc1C(F)(F)F [B, reference compound] | Kg/Ha | = | 0.64

---

Test system: corn
Experiment: Greenhouse pre-emergence GR15/GR85 selectivity test
Type: in vivo
Details: Table IV, Replicate #2
Hi, to clarify the labels: yes covers GR15 from 0.8 Kg/Ha upward, no covers anything below 0.8 Kg/Ha.

molecule | answer label
CCOCN(C(=O)CCl)c1c(C)cccc1C(F)(F)F | no
CCOCN(C(=O)CCl)c1c(CC)cccc1C(F)(F)F | yes
Cc1cccc(C(F)(F)F)c1N(COC(C)C)C(=O)CCl | yes
COCCN(C(=O)CCl)c1ccccc1C(F)(F)F [A, reference compound] | yes
CCOCCN(C(=O)CCl)c1ccccc1C(F)(F)F [B, reference compound] | no
CCCOCN(C(=O)CCl)c1c(C)cccc1C(F)(F)F | no

---

System: redroot pigweed
Assay: Greenhouse pre-emergence GR15/GR85 selectivity test
Assay type: in vivo
Details: in rape, Table XV
Item-by-item account of selectivity factor (GR15/GR85)

molecule | prefix operator | selectivity factor (GR15/GR85)
CCOCN(C(=O)CCl)c1c(CC)cccc1C(F)(F)F [Example 9] | = | 1.4
Cc1cccc(C(F)(F)F)c1N(COCC(C)C)C(=O)CCl [Example 5] | > | 2.2
CCCOCN(C(=O)CCl)c1c(CC)cccc1C(F)(F)F [Example 10] | > | 1.6
CCCOCN(C(=O)CCl)c1c(C)cccc1C(F)(F)F [Example 3] | = | 2.3
Cc1cccc(C(F)(F)F)c1N(COC(C)C)C(=O)CCl [Example 4] | > | 2.2

---

Item-by-item account of GR85
Tested on: Quackgrass
Experiment: Greenhouse pre-emergence GR15/GR85 selectivity test
Format: in vivo
Details: Table V
observation type: GR85 (Kg/Ha)

molecule | target under test | unit | quantitative result
COCCN(C(=O)CCl)c1c(C)cccc1C(F)(F)F [C, reference compound] | Quackgrass | Kg/Ha | 0.28
CCOCN(C(=O)CCl)c1c(C)cccc1C(F)(F)F [Example 1] | Quackgrass | Kg/Ha | 0.08
CCOCCN(C(=O)CCl)c1c(C)cccc1C(F)(F)F [E, reference compound] | Quackgrass | Kg/Ha | 0.28
COCC(C)N(C(=O)CCl)c1c(C)cccc1C(F)(F)F (stereo not shown) [D, reference compound] | Quackgrass | Kg/Ha | 1.7

---

Experiment: Toxicology studies, LD50
Details: in vivo; read-out: MLD50
observation type: LD50

molecule smiles | result
CCOCN(C(=O)CCl)c1c(C)cccc1C(F)(F)F | > 5010 mg/kg

---

Test system: redroot pigweed
Assay: Greenhouse pre-emergence GR15/GR85 selectivity test
Format: in vivo
Details: Table XV

molecule smiles | GR85 Rate, Kg/Ha
Cc1cccc(C(F)(F)F)c1N(COCC(C)C)C(=O)CCl | 0.50
CCCOCN(C(=O)CCl)c1c(C)cccc1C(F)(F)F | 0.39
CCCOCN(C(=O)CCl)c1c(CC)cccc1C(F)(F)F | 0.70
Cc1cccc(C(F)(F)F)c1N(COC(C)C)C(=O)CCl | 0.50
CCOCN(C(=O)CCl)c1c(CC)cccc1C(F)(F)F | 0.70

---

System: Barnyardgrass
Assay: Resistance to leaching and resulting herbicidal efficacy
Type: in vivo
Conditions: Echinochloa crus-galli; Ray silt loam, 0.14 Kg/Ha, rain 10.16 cm; read-out: Percent Inhibition
Item-by-item account of inhibition at 140 g/ha
observation type: inhibition at 140 g/ha

molecule smiles | result
CCCOCN(C(=O)CCl)c1c(C)cccc1C(F)(F)F | 14%
CCOCN(C(=O)CCl)c1c(C)cccc1C(F)(F)F | 20%
Cc1cccc(C(F)(F)F)c1N(COCC(C)C)C(=O)CCl | 29%
CCCOCN(C(=O)CCl)c1c(CC)cccc1C(F)(F)F | 65%
